Quick list: MBIC per entry.
- System: Staphylococcus aureus
- Assay Summary: Antimicrobial activity against Staphylococcus aureus ATCC 35556 assessed as inhibition of bacterial biofilm formation after 18 hrs by broth microdilution method in presence of 20 ug/ml fibrinogen
- Assay type: functional

Study these solved cases before continuing.
[[record]]
substance_smiles = "CCOc1cc(/C=C2\\SC(=S)N(c3ccc(F)cc3)C2=O)ccc1O"
observable = "MBIC"
endpoint_value = "6.25 µM"

[[record]]
substance_smiles = "CCOc1cc(/C=C2\\SC(=S)N(c3cccc(F)c3)C2=O)ccc1O"
observable = "MBIC"
endpoint_value = "6.25 µM"

[[record]]
substance_smiles = "CCOc1cc(/C=C2\\SC(=S)N(c3cccnc3)C2=O)ccc1O"
observable = "MBIC"
endpoint_value = "12.5 µM"


--- query ---
Write down the reported MBIC of `C=CCOc1cc(/C=C2\SC(=S)N(c3ccc(F)cc3)C2=O)ccc1O` , test system: Staphylococcus aureus. 3.125 µM
